# ASSAY_SUMMARY: Cynomolgus monkey tolerability, kidney and liver function markers (Example 34)
# ASSAY_CONDITIONS: cynomolgus monkeys, 35 mg/kg subcutaneously, day 44
In this section, each of the substances is paired with its reported TP.
Quick note: give the figure in g/dL, leave out the unit.

Measured TP of 1198831 (CACTTTTACATTAGGA; chemically modified gapmer, further chemistry not given here) [compound 1198831] : 6.7

Looking up 1198440 (AAGTGTATGTCAGAAG; cEt, 2'-MOE, 5-methylcytosine, phosphorothioate modifications, further chemistry not given here) [compound 1198440] , I found its TP recorded as 7.0

TP for 1198439 (AGTGTATGTCAGAAGA; sugar, 5-methylcytosine, phosphorothioate modifications, further chemistry not given here) [compound 1198439] is 6.8

So for 1198605 (GTAATATTGCAATCTG; modified gapmer, further chemistry not given here) [compound 1198605] , the logged TP turned out to be 6.7

----------
# System: Yap1 mRNA
# ASSAY_SUMMARY: Antisense inhibition of human Yap1 in A-431 cells by cEt gapmers, single dose (Example 2, RTS4814)
# Format: cell-based
# ASSAY_CONDITIONS: Table 33; Yap1 mRNA, percent of untreated control; 3-10-3 cEt gapmers targeting SEQ ID NO.: 1, and 2
Strand notation (5' to 3'): a small letter for the sugar, then the base; units joined by * are phosphorothioate-linked, units joined directly phosphodiester-linked; [ ] holds rarer units or linkages, { } end groups; capitals alone tell only the bases. k = constrained ethyl (cEt); [5mC] = 5-methylcytosine; d = 2'-deoxy (DNA)
PROPERTY: YAP1 (% UTC)
# value in % UTC; strip the unit string

Check out these entries, answers already filled in.
1075059 (antisense kA*kT*kT*dT*dA*d[5mC]*dT*dT*dT*dG*dG*dA*dT*kG*kT*k[5mC]) [compound 1075059] ... 11
1076563 (k[5mC]*kA*kA*dA*dG*dT*dA*dA*dT*dT*dA*dA*dA*k[5mC]*kG*kA; antisense) [compound 1076563] ... 91
1074291 (antisense k[5mC]*kA*k[5mC]*dT*d[5mC]*dT*dG*dA*d[5mC]*dT*dG*dA*dT*kT*k[5mC]*kT) [compound 1074291] ... 11

Kindly note the recorded YAP1 (% UTC) for 1076531 (kA*k[5mC]*kT*dA*dT*dA*dA*dA*dG*dG*dG*dT*dT*kT*kA*kG; antisense) [compound 1076531] , which is 66

Recorded result, 1075443 (antisense kG*kA*kT*dT*dA*dA*d[5mC]*dA*dG*dA*dG*d[5mC]*dT*kA*kG*kA) [compound 1075443] , YAP1 (% UTC): 29

The reported YAP1 (% UTC) of the substance 1076083 (k[5mC]*kG*k[5mC]*dT*dA*dT*dA*dA*dA*dG*dT*dG*dG*k[5mC]*kA*kT; antisense) [compound 1076083] was 46

What the record says about 958499 (ATTAGAGTATGTGGCA; 3-10-3 cEt gapmer, further chemistry not given here) [compound 958499] : YAP1 (% UTC) is 4

Lab note: 1074355 (antisense kA*kG*kG*dG*dA*d[5mC]*dA*d[5mC]*dT*dG*dT*dA*dG*k[5mC]*kT*kG) [compound 1074355] gave YAP1 (% UTC) of 55

What the record says about 1075091 (kA*kA*kA*d[5mC]*dA*dA*d[5mC]*dG*dA*dA*dT*dG*dA*kT*kT*kG; antisense) [compound 1075091] : YAP1 (% UTC) is 65

Documented YAP1 (% UTC) of 1074323 (antisense k[5mC]*kA*kG*dG*dG*d[5mC]*dT*dA*dA*d[5mC]*dT*d[5mC]*d[5mC]*kT*kG*kA) [compound 1074323] : 116

# substance 1075571 (antisense k[5mC]*kA*kA*dA*dT*dA*dG*dA*dT*dA*d[5mC]*dT*dA*kA*kG*k[5mC]) [compound 1075571] ; its YAP1 (% UTC) = 54

The reported YAP1 (% UTC) of the substance 1075827 (kA*kT*kA*d[5mC]*dT*dA*dT*dA*d[5mC]*d[5mC]*dT*dA*dA*kG*kG*kA; antisense) [compound 1075827] was 60

Documented YAP1 (% UTC) of 1075379 (antisense kT*kA*k[5mC]*d[5mC]*dA*dA*dA*dA*d[5mC]*dT*dA*d[5mC]*dA*kA*k[5mC]*k[5mC]) [compound 1075379] : 75

----------
# Test system: Yap1 mRNA
# ASSAY_SUMMARY: Antisense inhibition of human Yap1 in SNU-449 cells by modified oligonucleotides, single dose (Example 5, RTS36584)
# Type: cell-based
# ASSAY_CONDITIONS: Table 49; Yap1 mRNA level relative to untreated control; modified oligonucleotides targeting SEQ ID NO.: 1 and 2
Strand notation (5' to 3'): a small letter for the sugar, then the base; units joined by * are phosphorothioate-linked, units joined directly phosphodiester-linked; [ ] holds rarer units or linkages, { } end groups; capitals alone tell only the bases. e = 2'-O-(2-methoxyethyl) (MOE); k = constrained ethyl (cEt); [5mC] = 5-methylcytosine; d = 2'-deoxy (DNA)
The following substances are listed with their measured YAP1 (% UT) values.
Give just the number in % UT; leave the unit off.

715487 (antisense kA*kT*kT*dA*d[5mC]*dT*dT*d[5mC]*dA*dT*dA*dG*d[5mC]*kT*kT*kA) [Compound 715487] ... 30
1198302 (kT*kA*kT*dA*dA*d[5mC]*dT*dG*dG*dG*d[5mC]*dA*kA*eA*kT*eT; antisense) [Compound 1198302] ... 67

substance 1198350 (kT*kA*kT*dG*dT*dA*dA*dT*dA*dT*dT*dG*k[5mC]*eA*kA*eT; antisense) [Compound 1198350] , YAP1 (% UT) observed: 83

YAP1 (% UT) reported for this substance 1198552 (antisense kA*kG*kA*dG*dT*dA*dT*dG*dT*dG*dG*d[5mC]*kA*kA*kT*eA) [Compound 1198552] : 17

YAP1 (% UT) in this record for 1198570 (antisense kG*k[5mC]*kA*d[5mC]*dT*dT*dT*dT*dA*d[5mC]*dA*dT*kT*kA*kG*eG) [Compound 1198570] : 15

According to the records, this substance 1198569 (antisense CACTTTTACATTAGGA; chemistry not fully specified) [Compound 1198569] displays YAP1 (% UT) of 14

Lab note: measured YAP1 (% UT) of 1198565 (antisense kT*kT*kA*d[5mC]*dA*dT*dT*dA*dG*dG*dA*dA*k[5mC]*kA*kA*eG) [Compound 1198565] was 53

The substance listed as 1198364 (kT*kA*kA*dG*dT*dA*dA*dG*dG*dT*dT*dT*k[5mC]*e[5mC]*k[5mC]*eA; antisense) [Compound 1198364] shows YAP1 (% UT) equal to 29

Query 1198558 (antisense kT*kA*kT*dA*dT*dT*dA*dG*dA*dG*dT*dA*kT*kG*kT*eG) [Compound 1198558] yields YAP1 (% UT) of 46

----------
# System: Yap1 mRNA
# ASSAY_SUMMARY: Dose-dependent inhibition of human Yap1 in A-431 cells (Example 8, 10,000 cells per well, RTS4814)
# Format: cell-based
# ASSAY_CONDITIONS: 31.3 nM; A-431 cells, 10,000 cells per well, free uptake, approximately 48 hours, RTS4814
Strand notation (5' to 3'): a small letter for the sugar, then the base; units joined by * are phosphorothioate-linked, units joined directly phosphodiester-linked; [ ] holds rarer units or linkages, { } end groups; capitals alone tell only the bases. k = constrained ethyl (cEt); [5mC] = 5-methylcytosine; d = 2'-deoxy (DNA)
Please mark YES if the recorded Yap1 mRNA, % UTC is equal to or greater than 60 % UTC, and NO if it falls below.

Worked cases, answers included:
1075810 (kG*kT*kA*dG*d[5mC]*dA*dA*dT*dA*dG*dA*dG*dT*kA*kA*k[5mC]; antisense) [compound 1075810] ... YES
1075246 (kG*kA*kT*dA*dA*d[5mC]*dT*dA*dG*dT*dA*dA*d[5mC]*k[5mC]*kG*kT; antisense) [compound 1075246] ... YES
1074565 (DNA kA*k[5mC]*kT*dG*dA*dA*dT*dT*d[5mC]*d[5mC]*dA*dA*dT*k[5mC]*kG*kA; antisense) [compound 1074565] ... NO
1076295 (kG*kT*kA*dT*dA*dT*dT*dA*dG*dT*dG*d[5mC]*d[5mC]*k[5mC]*k[5mC]*k[5mC]; antisense) [compound 1076295] ... NO

hey, is Yap1 mRNA, % UTC for this one >= 60 % UTC? 1075778 (k[5mC]*kA*kT*dT*dT*dA*dT*dA*d[5mC]*d[5mC]*dA*dG*dG*k[5mC]*kA*k[5mC]; antisense) [compound 1075778] NO

State whether the measured Yap1 mRNA, % UTC reaches 60 % UTC, counting equality as reaching it, for 1074318 (antisense kG*kG*kA*dG*dA*dA*dT*dT*dT*dG*d[5mC]*dT*dG*kT*kG*k[5mC]) [compound 1074318] NO

Textbook exercise: given the entry 1074766 (kA*kT*k[5mC]*d[5mC]*d[5mC]*dA*dA*dT*dG*d[5mC]*dT*dA*d[5mC]*k[5mC]*k[5mC]*kA; antisense) [compound 1074766] , state whether its Yap1 mRNA, % UTC is greater than or equal to 60 % UTC. YES
